Assay: Inhibition of PAD4 in C57BL/6 mouse bone marrow neutrophils assessed as inhibition of PMA-stimulated neutrophil extracellular trap formation preincubated for 30 mins followed by PMA stimulation measured after 3 to 4 hrs by DNA/neutrophil elastase overlap assay
Readout Type: EC50 (µM)
Field format: number, assumed µM, no unit text.

What does the data say about its EC50? Entry: `CC(C)(C)n1nnc([C@H](CCCNC(=N)CCl)NC(=O)c2ccc(-c3ccccc3)cc2)n1` 20
